# method: in vitro
# settings: human
measure: CC50

Qu. Indicate the recorded CC50 value for this molecule: Cc1nnc(C(=O)NC(C)(C)c2nc(C(=O)NCc3ccc(F)cc3)c(O)c(=O)n2C)o1
Ans. > 100 µM

Origin of measurements: paper PMC3548936
